Biological target: acid ceramidase (hACR) (Homo sapiens, UniProt Q13510)
Construct: expressed in transfected cells
Sequence (Q13510 22-395): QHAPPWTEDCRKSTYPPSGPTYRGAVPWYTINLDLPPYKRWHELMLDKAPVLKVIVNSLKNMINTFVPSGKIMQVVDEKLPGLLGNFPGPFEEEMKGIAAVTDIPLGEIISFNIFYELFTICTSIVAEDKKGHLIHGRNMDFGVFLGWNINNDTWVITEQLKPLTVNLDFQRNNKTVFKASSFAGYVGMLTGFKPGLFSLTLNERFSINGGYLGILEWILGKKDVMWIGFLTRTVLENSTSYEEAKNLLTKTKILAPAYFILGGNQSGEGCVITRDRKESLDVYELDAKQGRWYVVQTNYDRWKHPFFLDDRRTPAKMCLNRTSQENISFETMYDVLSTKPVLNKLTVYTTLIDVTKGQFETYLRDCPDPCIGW
Test: Acid ceramidase inhibition, biochemical fluorescent assay with cell lysates overexpressing acid ceramidase (substrate Rbm14-12)
Settings: cell lysate, 1 hr preincubation at RT, pH 4.5, Rbm14-12 6.3 μM; read-out: IC50 hACR
pIC50: −log10 of the molar value.
Overview of reported pIC50 across a group of compounds:

- compound: "COc1nc(C2CCCC2)cn1C(=O)NCCC(C)C [Example 75]"
  target-or-test-system: "acid ceramidase (hACR) (Homo sapiens, UniProt Q13510)"
  pIC50: "6.00 to 6.70"
- compound: "COc1nc(C)cn1C(=O)NC1CC1 [Example 148]"
  target-or-test-system: "acid ceramidase (hACR) (Homo sapiens, UniProt Q13510)"
  pIC50: "6.00 to 6.70"
- compound: "CN1CCN(C2CCN(c3ncccc3-c3cn(C(=O)NCCC4CC4)cn3)CC2)CC1 [Example 55]"
  target-or-test-system: "acid ceramidase (hACR) (Homo sapiens, UniProt Q13510)"
  pIC50: "6.00 to 6.70"
- compound: "CN(C)Cc1cncc(-c2cn(C(=O)NCCc3ccccc3)cn2)c1 [Example 44]"
  target-or-test-system: "acid ceramidase (hACR) (Homo sapiens, UniProt Q13510)"
  pIC50: "6.00 to 6.70"
- compound: "O=C(NCCC1CC1)n1cnc(-n2ccc(F)n2)c1 [Example 74]"
  target-or-test-system: "acid ceramidase (hACR) (Homo sapiens, UniProt Q13510)"
  pIC50: "< 6.00"
- compound: "CC(C)(C)c1cn(C(=O)NCCOc2ccccc2)cn1 [Example 19]"
  target-or-test-system: "acid ceramidase (hACR) (Homo sapiens, UniProt Q13510)"
  pIC50: "> 6.70"
- compound: "O=C(NCCc1ccccc1)n1cnc(-c2cccnc2)c1 [Example 5]"
  target-or-test-system: "acid ceramidase (hACR) (Homo sapiens, UniProt Q13510)"
  pIC50: "6.00 to 6.70"
- compound: "CCOc1nc(-c2cccnc2)cn1C(=O)NCCC1CC1 [Example 64]"
  target-or-test-system: "acid ceramidase (hACR) (Homo sapiens, UniProt Q13510)"
  pIC50: "< 6.00"
- compound: "CC(C)(C)CCNC(=O)n1cnc(-c2cccnc2)c1 [Example 45]"
  target-or-test-system: "acid ceramidase (hACR) (Homo sapiens, UniProt Q13510)"
  pIC50: "6.00 to 6.70"
- compound: "COc1nc(C(C)(C)C)cn1C(=O)NCCCc1ccccc1 [Example 101]"
  target-or-test-system: "acid ceramidase (hACR) (Homo sapiens, UniProt Q13510)"
  pIC50: "> 6.70"
- compound: "COc1nc(C)cn1C(=O)NCCc1ccccc1 [Example 143]"
  target-or-test-system: "acid ceramidase (hACR) (Homo sapiens, UniProt Q13510)"
  pIC50: "> 6.70"
- compound: "COc1nc(C(C)(C)C)cn1C(=O)NCCCCn1ccc(C(C)(C)C)n1 [Example 134]"
  target-or-test-system: "acid ceramidase (hACR) (Homo sapiens, UniProt Q13510)"
  pIC50: "> 6.70"
- compound: "COc1nc(C2CCOC2)cn1C(=O)NCCCCC1CC1 (centres unmarked) [Example 131]"
  target-or-test-system: "acid ceramidase (hACR) (Homo sapiens, UniProt Q13510)"
  pIC50: "6.00 to 6.70"
- compound: "CC(C)(CNC(=O)n1cnc(-c2cccnc2)c1)c1ccccc1 [Example 13]"
  target-or-test-system: "acid ceramidase (hACR) (Homo sapiens, UniProt Q13510)"
  pIC50: "> 6.70"
- compound: "COc1nc(C(C)(C)C)cn1C(=O)NC(C)CC(C)C (centres unmarked) [Example 58]"
  target-or-test-system: "acid ceramidase (hACR) (Homo sapiens, UniProt Q13510)"
  pIC50: "6.00 to 6.70"
- compound: "COc1nc(C)cn1C(=O)NCCC1CCC(F)(F)C1 (centres unmarked) [Example 154]"
  target-or-test-system: "acid ceramidase (hACR) (Homo sapiens, UniProt Q13510)"
  pIC50: "6.00 to 6.70"
- compound: "COc1nc(C)c(C)n1C(=O)NCCc1ccccc1 [Example 170]"
  target-or-test-system: "acid ceramidase (hACR) (Homo sapiens, UniProt Q13510)"
  pIC50: "> 6.70"
- compound: "CCC1(NC(=O)n2cc(C(C)(C)C)nc2OC)CC1 [Example 129]"
  target-or-test-system: "acid ceramidase (hACR) (Homo sapiens, UniProt Q13510)"
  pIC50: "< 6.00"
- compound: "Cc1cn(C(=O)NCCC(C)C)c(Oc2ccccc2)n1 [Example 146]"
  target-or-test-system: "acid ceramidase (hACR) (Homo sapiens, UniProt Q13510)"
  pIC50: "> 6.70"
- compound: "COc1nc(C)cn1C(=O)NCCC1CC(F)(F)C1 [Example 166]"
  target-or-test-system: "acid ceramidase (hACR) (Homo sapiens, UniProt Q13510)"
  pIC50: "6.00 to 6.70"
- compound: "CN1CCC(Oc2nc(Cl)cn2C(=O)NCCCC(F)(F)F)CC1 [Example 188]"
  target-or-test-system: "acid ceramidase (hACR) (Homo sapiens, UniProt Q13510)"
  pIC50: "6.00 to 6.70"
- compound: "COc1nc(C(C)(C)C)cn1C(=O)NCCCC1CC1 [Example 95]"
  target-or-test-system: "acid ceramidase (hACR) (Homo sapiens, UniProt Q13510)"
  pIC50: "> 6.70"
- compound: "COc1nc(-c2ccccc2)cn1C(=O)NC1CCC(F)(F)CC1 [Example 157]"
  target-or-test-system: "acid ceramidase (hACR) (Homo sapiens, UniProt Q13510)"
  pIC50: "6.00 to 6.70"
- compound: "COc1nc(C)cn1C(=O)NCC#CCc1ccccc1 [Example 181]"
  target-or-test-system: "acid ceramidase (hACR) (Homo sapiens, UniProt Q13510)"
  pIC50: "> 6.70"
- compound: "COc1nc(Cl)cn1C(=O)NC1CC1 [Example 189]"
  target-or-test-system: "acid ceramidase (hACR) (Homo sapiens, UniProt Q13510)"
  pIC50: "< 6.00"
- compound: "COc1nc(C)cn1C(=O)NCCCCc1ccccc1 [Example 156]"
  target-or-test-system: "acid ceramidase (hACR) (Homo sapiens, UniProt Q13510)"
  pIC50: "> 6.70"
- compound: "O=C(NCCC1CCCC1(F)F)n1cc(Cl)nc1OCCN1CCOCC1 (centres unmarked) [Example 191]"
  target-or-test-system: "acid ceramidase (hACR) (Homo sapiens, UniProt Q13510)"
  pIC50: "6.00 to 6.70"
- compound: "COc1nc(C2(C)CCC(=O)N2C)cn1C(=O)NCCC(C)C (centres unmarked) [Example 82]"
  target-or-test-system: "acid ceramidase (hACR) (Homo sapiens, UniProt Q13510)"
  pIC50: "< 6.00"
- compound: "COc1nccn1C(=O)NCCC(C)C [Example 78]"
  target-or-test-system: "acid ceramidase (hACR) (Homo sapiens, UniProt Q13510)"
  pIC50: "6.00 to 6.70"
- compound: "COc1nc(C(C)(C)C)cn1C(=O)NC1CCCCC1 [Example 93]"
  target-or-test-system: "acid ceramidase (hACR) (Homo sapiens, UniProt Q13510)"
  pIC50: "6.00 to 6.70"
- compound: "CSc1nc(C(C)(C)C)cn1C(=O)NCCC(C)C [Example 80]"
  target-or-test-system: "acid ceramidase (hACR) (Homo sapiens, UniProt Q13510)"
  pIC50: "> 6.70"
- compound: "O=C(NCCCc1ccccc1)n1cnc(-c2cccnc2)c1 [Example 14]"
  target-or-test-system: "acid ceramidase (hACR) (Homo sapiens, UniProt Q13510)"
  pIC50: "> 6.70"
- compound: "O=C(NCCC1CC1)n1cnc(-c2cscn2)c1 [Example 69]"
  target-or-test-system: "acid ceramidase (hACR) (Homo sapiens, UniProt Q13510)"
  pIC50: "6.00 to 6.70"
- compound: "COCCOc1nc(C(C)(C)C)cn1C(=O)NCCC(C)C [Example 117]"
  target-or-test-system: "acid ceramidase (hACR) (Homo sapiens, UniProt Q13510)"
  pIC50: "6.00 to 6.70"
- compound: "CSc1nccn1C(=O)NCCC(C)C [Example 132]"
  target-or-test-system: "acid ceramidase (hACR) (Homo sapiens, UniProt Q13510)"
  pIC50: "> 6.70"
